Tested on: LMNA aberrant splicing (MutLMNA-luc cell line)
Protocol details: Luciferase assay for repression of LMNA aberrant splicing in stable 293 MutLMNA-luc cell line (293FLP LMNA LUC cells #8)
Assay type: cell-based
Measurement parameters: 48 hours, compared to control untreated MutLMNA-luc cell line, read-out: Increase of luciferase activity
Friendly reminder: fold induction at 5 µM below 3 is condition met, at or above is condition not met.

Some solved entries appear below for comparison.
N#Cc1ccc(Nc2cnc3ccccc3n2)nc1 [Compound 137] ... condition not met
Cc1cccc(Nc2ccc3cc(Cl)ccc3n2)n1 [Compound 26] ... condition not met
FC(F)(F)Oc1cccc(Nc2ccc3ccccc3n2)c1 [Compound 83] ... condition met
N#Cc1ccc(Nc2ccc3ccccc3n2)nc1 [Compound 7, 6-(Quinolin-2-ylamino)-nicotinonitrile] ... condition not met

Now for another entry.
**Query** Say whether its fold induction at 5 µM is strictly beneath 3. Entry: Cc1cccc(Nc2ccc3cccc(Cl)c3n2)n1 [Compound 18]
**Result** condition met
